# Test system: Mycobacterium tuberculosis
# ASSAY_SUMMARY: Antimicrobial activity against isoniazid-resistant Mycobacterium tuberculosis H37Rv SRI 1369 assessed as growth inhibition at MIC after 7 days by broth microdilution assay relative to control
# Format: functional
MEASUREMENT_KIND: growth inhibition (GI)
Please answer using the number first and the unit second.

>>> measured_result("Clc1ccc2nc3c(c(-c4ccccc4)c2c1)CCC3")
"69%"
>>> measured_result("O=[N+]([O-])c1ccc2nc3c(c(-c4ccccc4)c2c1)CCCC3")
"41%"
>>> measured_result("O=[N+]([O-])c1ccc2nc3c(c(-c4ccccc4)c2c1)CCCCC3")
"52%"

Let us move to another entry and its growth inhibition (GI).
Using known records, supply growth inhibition (GI) for CO[C@H]1/C=C/O[C@@]2(C)Oc3c(C)c(O)c4c(O)c(c(/C=N/N5CCN(C)CC5)c(O)c4c3C2=O)NC(=O)/C(C)=C\C=C\[C@H](C)[C@H](O)[C@@H](C)[C@@H](O)[C@@H](C)[C@H](OC(C)=O)[C@@H]1C [RIFAMPIN] 74%

* * *

So I've got a bunch of compounds here, and I need their MIC values.
# Test system: Mycobacterium tuberculosis
# ASSAY_SUMMARY: Antimicrobial activity against isoniazid-resistant Mycobacterium tuberculosis H37Rv SRI 1369 assessed as growth inhibition after 7 days by broth microdilution assay
# Type: functional
# COND: H37Rv SRI 1369, 168 h
Numbers only, in µg/mL.

>>> measured_result("O=[N+]([O-])c1ccc2nc3c(c(-c4ccccc4)c2c1)CCCCC3")
37.5

Required: MIC, one value per compound below.
1. CO[C@H]1/C=C/O[C@@]2(C)Oc3c(C)c(O)c4c(O)c(c(/C=N/N5CCN(C)CC5)c(O)c4c3C2=O)NC(=O)/C(C)=C\C=C\[C@H](C)[C@H](O)[C@@H](C)[C@@H](O)[C@@H](C)[C@H](OC(C)=O)[C@@H]1C
2. Clc1ccc2nc3c(c(-c4ccccc4)c2c1)CCC3
3. O=[N+]([O-])c1ccc2nc3c(c(-c4ccccc4)c2c1)CCCC3

1: 0.02; 2: 6.25; 3: 6.25
